Test system: Pepsin
Construct: purchased Merck Millipore
experiment: Protease stability in simulated gastric fluid (Pepsin-SGF, FaSSGF)
Assay type: in vitro ADME
test-context: simulated gastric fluid with pepsin (Pepsin-SGF), 60 min, 1 μM peptide, 37° C., read-out: FaSSGF 60 (min), remaining percent of peptide
Starred links: 1 amine or outer side, 2 acyl side, 3 side chain; linkers in the order of their positions; H or OH if unused. Positions of bridges follow the written chain, without caps; N, C: chain ends. Non-standard residues stand in square brackets, D forms with d. Residues, ends and D or L forms follow the SMILES beside them. *: point of attachment. X5 = CN(C(=O)CCC(=O)[*:3])[C@@H](CS[*:2])C(=O)[*:1]; Trp(7-Me) = Cc1cccc2c(C[C@H](N)C(=O)O)c[nH]c12; 2Nal = N[C@@H](Cc1ccc2ccccc2c1)C(=O)O; AEF = NCCOc1ccc(C[C@H](N)C(=O)O)cc1; 3Pal = N[C@@H](Cc1cccnc1)C(=O)O; Lys(Me) = CNCCCC[C@H](N)C(=O)O; αMeL = CC(C)C[C@](C)(N)C(=O)O; Thp = NC1(C(=O)O)CCOCC1; Me2NCH2CH2 = CN(C)CC*; Aib = CC(C)(N)C(=O)O; Ahx = NCCCCCC(=O)O; Ava = NCCCCC(=O)O; Sar = CNCC(=O)O
readout-type: remaining at 1 h, 1 µM
Give me the value, and tack the unit on after it.

Item under review: CC(C)C[C@]1(C)NC(=O)[C@H](Cc2ccc3ccccc3c2)NC(=O)[C@H](Cc2ccc(OCCN(C)C)cc2)NC(=O)[C@@H]2CSSC[C@H](NC(=O)CCCCNC(=O)CC[C@@H](C(=O)N[C@@H](CC(N)=O)C(=O)N[C@@H](CC(N)=O)C(N)=O)NC1=O)C(=O)N[C@@H](CC(N)=O)C(=O)N[C@@H]([C@@H](C)O)C(=O)N[C@@H](Cc1c[nH]c3ccccc13)C(=O)N[C@@H](CCC(N)=O)C(=O)N2 [compound 27] ([Ava]CNTWQCY(Me2NCH2CH2)[2Nal][αMeL]ENN-NH2; disulfide 2-7; lactam N-11) . Reported remaining at 1 h, 1 µM?
82%

# lookup: remaining at 1 h, 1 µM of CC(=O)NCCCC[C@@H]1NC(=O)[C@H](Cc2c[nH]c3c(C)cccc23)NC(=O)[C@@H](NC(C)=O)CCCCNC(=O)[C@@H]2CSSC[C@H](NC1=O)C(=O)N[C@@H](Cc1ccc(OCCN(C)C)cc1)C(=O)N[C@@H](Cc1ccc3ccccc3c1)C(=O)NC1(CCOCC1)C(=O)N[C@H](C(=O)N[C@@H](CC(N)=O)C(=O)N[C@@H](Cc1cccnc1)C(=O)N(C)CC(N)=O)CCCCN(C)C(=O)CCC(=O)N2C [compound 74] (Ac-K[Trp(7-Me)]K(Ac)CY(Me2NCH2CH2)[2Nal][Thp][Lys(Me)]N[3Pal][Sar]-NH2; linker 1-4-8 via X5)
92%

Returns the measured remaining at 1 h, 1 µM for the input molecule. Input: C[C@H](NC(=O)[C@@H]1CC(=O)NCCCCCC(=O)N[C@H]2CSSC[C@H](NC(=O)[C@H](CCC(N)=O)NC(=O)[C@H](Cc3c[nH]c4ccccc34)NC(=O)CCCCNC2=O)C(=O)N[C@@H](Cc2ccc(OCCN)cc2)C(=O)N[C@@H](Cc2ccc3ccccc3c2)C(=O)NC(C)(C)C(=O)N1)C(=O)NCC(N)=O [compound 53] ([Ahx]C[Ava]WQC[AEF][2Nal][Aib]DAG-NH2; disulfide 2-6; lactam N-10)
0%

State the recorded remaining at 1 h, 1 µM for this entry: C[C@@H](O)[C@@H]1NC(=O)[C@H](CC(N)=O)NC(=O)[C@@H]2CSSC[C@H](NC(=O)[C@H](CCC(N)=O)NC(=O)[C@H](Cc3c[nH]c4ccccc34)NC1=O)C(=O)N[C@@H](Cc1ccc(OCCN(C)C)cc1)C(=O)N[C@H](Cc1ccc3ccccc3c1)C(=O)NC(C)(C)C(=O)N[C@H](C(=O)N[C@@H](CC(N)=O)C(=O)N[C@@H](CC(N)=O)C(N)=O)CCC(=O)NCCCCC(=O)N2 [compound 8]
92%

What value of remaining at 1 h, 1 µM has been recorded for this entry: COc1ccc(C[C@@H]2NC(=O)[C@@H]3CSSC[C@H](NC(=O)CCCCNC(=O)CC[C@@H](C(=O)N[C@@H](CC(N)=O)C(=O)NCC(N)=O)NC(=O)C(C)(C)NC(=O)[C@H](Cc4ccc5ccccc5c4)NC2=O)C(=O)N[C@@H](CC(N)=O)C(=O)N[C@@H]([C@@H](C)O)C(=O)N[C@@H](Cc2c[nH]c4ccccc24)C(=O)N[C@@H](CCC(N)=O)C(=O)N3)cc1 [compound 4] ([Ava]CNTWQCY(Me)[2Nal][Aib]ENG-NH2; disulfide 2-7; lactam N-11)
1%
